Tested on: K4 kissing-loop RNA reporter;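 note: bound reporter read as fluorescence of individual clusters on recovered sequencing chips by microscopy, with normalized cluster intensities fitted with a binding model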
procedure text: apparent KD of K4 kissing-loop reporter; higher = weaker reporter binding
experimental conditions: Eterna round: R107; input ligand: FMN 200 uM
Listing of entries alongside the reported apparent KD of K4 kissing-loop reporter.
readout label: apparent KD of K4 kissing-loop reporter (nM)

[[record]]
item_sequence = "GUAUCGCUAGGAGGAUAUUUCGUUUUUCAUAGCAAUGGCUGUGCGGAGUGAUGUUCCGAUUUACCGGAAGAAGGCCUAGUGAUAC [FMN B 27]"
scale_unit = "nM"
obs_value = 107

[[record]]
item_sequence = "CCUGCCAGCACGGCCGCCACUUCUAUUGUAUCUAUUUUUGUAAUCCUUUAGGAGUGAUGUUUUUAAAGGACCGGGUGAUGGCUGA [theeternabot_exclusion_KL_Trp_B_14]"
scale_unit = "nM"
obs_value = 446

[[record]]
item_sequence = "CCAGCAAAGCUGGUCGCCAAACAACGGGCACGAGGACCGGUACGGCCGCCACUCGUGAGGACGAGUGAUGUUCGUUCACGGGCGA"
scale_unit = "nM"
obs_value = 815

[[record]]
item_sequence = "AGACUACCACACUGUCAAUAGACAGUGAACUCGGAUAUGCUGAUAAGCAGAAGGAGUGAUGUUCCGAGGUAGUCAAUAAAAUAAU [FmnAX 13 C32+G66]"
scale_unit = "nM"
obs_value = 263

[[record]]
item_sequence = "AAACCAAUCAGAGGAUAUUCUUUAUUCGACAUAAAUUUCUAUAAAUUGCAGUGAUGUUGCAAUAUAGGAGAAGGCUGAUUGACAA [Exclusion FMN B Gf 12]"
scale_unit = "nM"
obs_value = 239

[[record]]
item_sequence = "CGUGCCCAGCCGGAUACCAGUGACCCGCUGGGAACCGCGGGCCCAGAGUGAUGUUCGGGACACCCUUGGCAGCCGCCUGGGCGGC [#2 Same State - Theophylline B Attempt #12 (HarryS)]"
scale_unit = "nM"
obs_value = 1380

[[record]]
item_sequence = "UAGUCCGAGUGAUGGUCAUCACGUGGCGGGCGAGGACCGGUACGGCCGCCACUCGACUUUGCAGUGAUGUUGCAAACCGGACAAU [Exclusion - Tryptophan A (Freestyle 21)]"
scale_unit = "nM"
obs_value = 229

[[record]]
item_sequence = "AGUUUAGAGUGACUCGAUAAGAGUCACAAACGAGGACCGGUACGGCCGCCACUCGAAAUAACGAGAGUGAUGUUCUCGCUGGGUA [FiskerMod 4 - Jieux - Same State Tryptophan A]"
scale_unit = "nM"
obs_value = 317

[[record]]
item_sequence = "CGAGUGAUGUUCGAAGAGUUGUUAAGCGAUACCAGCCAGGAAACUGGCCCUUGGCAGCGUAAUAAAUAAAUAAAUAAAUGAUCAC [Theophylline A Exclusion; Euphoria Solution]"
scale_unit = "nM"
obs_value = 425

[[record]]
item_sequence = "UAUAAGCGCAGAGGAUAUACUAGCUUUCACUAGUGCAGUGAUGUUGCACUAGACCAGCUGUACAUAGUAGAAGGCUGCGUUCCUU [FMN B SS t1]"
scale_unit = "nM"
obs_value = 89.1

[[record]]
item_sequence = "UCCUAGGUUCGUCGGCGAAAGCCCUGCGAAGGAGCGUGCGAAAGCACAGGUAGGUCGCGCAGUGAUGUUGCACCUAGGUAAUAAA [#SwitchBubble 23 #K4Late]"
scale_unit = "nM"
obs_value = 1030

